- Procedure details: Cytotoxicity against human MC3T3-E1 cells assessed as decrease in cell viability measured after 36 hrs by WST-1 assay
- Type: toxicity, cell-based
- Condition: mouse
Readout name: IC50 at 36 h (µM)

INSERT INTO assay_data (compound, recorded_number) VALUES
  ('CCCCCCCCC#CC(c1ccc(C(=O)OC)cc1)N1CCCC1 (configuration not stated)', 558),
  ('CCCCCCCCC#CC(c1ccccc1)N1CCCC1 (configuration not stated)', 250);

###

- Test system: PC-3
- Procedure details: Cytotoxicity against human PC-3 cells treated for 72 hrs by MTT assay
- Assay type: functional, cell-based
- Condition: PC-3, 72 h
Readout name: IC50 (µM)

INSERT INTO assay_data (compound, relation_qualifier, recorded_number) VALUES
  ('CN1CCN(Cc2ccc(Nc3ccnc4cc(Cl)ccc34)cc2-c2ccc(Cl)cc2)CC1', '=', 24.2),
  ('Clc1ccc2c(Nc3ccc(CN4CCCC4)c(-c4ccccc4)c3)ccnc2c1', '=', 44),
  ('Clc1ccc2c(Nc3ccc(CN4CCOCC4)cc3)ccnc2c1', '=', 11.7),
  ('COc1cccc2c1C(=O)c1c(O)c3c(c(O)c1C2=O)C[C@@](O)(C(=O)CO)C[C@@H]3O[C@H]1C[C@H](N)[C@H](O)[C@H](C)O1 [DOXORUBICIN]', '=', 1.66),
  ('Clc1ccc(-c2cc(Nc3ccnc4cc(Cl)ccc34)ccc2CN2CCCCC2)cc1', '>', 200),
  ('CCN(CC)Cc1ccc(Nc2ccnc3cc(Cl)ccc23)cc1-c1ccccc1', '=', 34.2),
  ('COc1cc2c(c(OC)c1OC)-c1ccc(OC)c(=O)cc1[C@@H](NC(C)=O)CC2 [COLCHICINE]', '=', 0.03),
  ('CC(C)(C)NCc1ccc(Nc2ccnc3cc(Cl)ccc23)cc1', '=', 149),
  ('Clc1ccc(-c2cc(Nc3ccnc4cc(Cl)ccc34)ccc2CN2CCOCC2)cc1', '=', 11.7);

###

- Test system: SK-BR-3
- Procedure details: Cytotoxicity against human SK-BR-3 cells treated for 72 hrs by MTT assay
- Format: functional, cell-based
- Condition: SK-BR-3, 72 h
pIC50: −log10 of the molar value.
Give Yes when the value for pIC50 is at least 5. Give No when it is less.

INSERT INTO assay_data (compound_smiles, group) VALUES
  ('Clc1ccc(-c2cc(Nc3ccnc4cc(Cl)ccc34)ccc2CN2CCOCC2)cc1', 'Yes'),
  ('Clc1ccc2c(Nc3ccc(CN4CCOCC4)c(-c4ccccc4)c3)ccnc2c1', 'No'),
  ('Clc1ccc2c(Nc3ccc(CN4CCCCC4)cc3)ccnc2c1', 'No'),
  ('Clc1ccc(-c2cc(Nc3ccnc4cc(Cl)ccc34)ccc2CN2CCCC2)cc1', 'No'),
  ('CCN(CC)Cc1ccc(Nc2ccnc3cc(Cl)ccc23)cc1-c1ccccc1', 'Yes'),
  ('COc1cc2c(c(OC)c1OC)-c1ccc(OC)c(=O)cc1[C@@H](NC(C)=O)CC2', 'Yes'),
  ('COc1cccc2c1C(=O)c1c(O)c3c(c(O)c1C2=O)C[C@@](O)(C(=O)CO)C[C@@H]3O[C@H]1C[C@H](N)[C@H](O)[C@H](C)O1', 'Yes'),
  ('Clc1ccc2c(Nc3ccc(CN4CCOCC4)cc3)ccnc2c1', 'Yes'),
  ('Clc1ccc2c(Nc3ccc(CN4CCCC4)c(-c4ccccc4)c3)ccnc2c1', 'Yes');
